Tested on: NMDA
Protocol details: Eurofins panel: NMDA (antagonist radioligand)
Assay type: binding
Test settings: read-out: Concurrent IC50 (Specific binding), reference compound
Recorded metric: pIC50
One number for each entry, as −log10 of the molar value.

Task: Report value: pIC50, system: NMDA, compound: O=C(O)[C@@H]1C[C@H](CP(=O)(O)O)CCN1
Result: 6.48

====

Would you kindly list pKi for each of these compounds?
System tested: aggregated tau (4R-tau) in CBD brain tissue homogenates (Homo sapiens, UniProt P10636)
Sequence (P10636 1-441 isoform P10636-8): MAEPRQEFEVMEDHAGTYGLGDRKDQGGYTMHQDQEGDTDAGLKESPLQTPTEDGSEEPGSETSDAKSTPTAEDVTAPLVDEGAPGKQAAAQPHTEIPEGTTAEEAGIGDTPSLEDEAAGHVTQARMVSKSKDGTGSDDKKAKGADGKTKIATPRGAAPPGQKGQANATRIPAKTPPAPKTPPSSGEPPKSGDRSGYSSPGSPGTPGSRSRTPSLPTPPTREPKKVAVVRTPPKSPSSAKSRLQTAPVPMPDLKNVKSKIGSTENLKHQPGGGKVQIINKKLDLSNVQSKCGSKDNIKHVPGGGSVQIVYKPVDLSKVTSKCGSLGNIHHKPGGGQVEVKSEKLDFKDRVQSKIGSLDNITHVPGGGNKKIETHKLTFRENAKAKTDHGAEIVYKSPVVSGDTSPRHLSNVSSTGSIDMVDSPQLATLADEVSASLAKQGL
Protocol details: biochemical
Numbers only, as −log10 of the molar value.

Look up pKi for the entries below, preserving their order.
1. OC1CCN(c2ncc(-c3cc4ccc(F)cc4[nH]3)cn2)CC1
2. O[C@H]1CCN(c2ccc(-c3cc4ccc(F)cc4[nH]3)cn2)C1 [Compound 9, reference compound]

Result:
1. 7.85
2. 7.82

====

Please respond with reported Ki for every item in the list.
System tested: aggregated tau (4R-tau) in CBD brain tissue homogenates (Homo sapiens, UniProt P10636)
Protocol details: In vitro competition (Ki) assay versus [^3H]75, CBD brain tissue homogenate
Format: binding
Design: from tissue; host or cells: post-mortem human CBD brain, middle frontal gyrus homogenate
Test settings: CBD brain tissue homogenate; radioligand [^3H]75; n = 3, mean ± SD
Give bare numbers, in µM.

Fc1ccc2cc(-c3cnc(N4CCOCC4)nc3)[nH]c2c1; 0.016
Nc1c(F)ccc2cnc(-n3ccc4ccncc43)cc12; 0.888
OCC1CCN(c2ccc(-c3cc4cc(O)ccc4[nH]3)c(F)n2)CC1; 0.572

Kindly consider the entry below.
Task: Look up and state reported Ki for CNc1ccc(/C=C/C=C/c2nc3ccc(OCC(O)CF)cc3s2)cn1 (stereo not shown)
Result: 0.106

====

Tested on: TNF-alpha (h)
Test settings: read-out: Concurrent IC50 (Specific binding), reference compound
Where no end group is shown, it is not given here.
Recorded metric: pIC50
Give bare numbers, as −log10 of the molar value.

Task: Identify pIC50 associated with the substance KGDRLS [TNF-alpha]
Result: 10.09

====

System tested: aggregated tau (3R-tau) in PiD brain tissue homogenates (Homo sapiens, UniProt P10636)
Construct: or only 3R-tau aggregates (PiD middle frontal gyrus); from tissue; host or cells: post-mortem human PiD brain, middle frontal gyrus homogenate
Sequence (P10636 1-410 isoform P10636-5): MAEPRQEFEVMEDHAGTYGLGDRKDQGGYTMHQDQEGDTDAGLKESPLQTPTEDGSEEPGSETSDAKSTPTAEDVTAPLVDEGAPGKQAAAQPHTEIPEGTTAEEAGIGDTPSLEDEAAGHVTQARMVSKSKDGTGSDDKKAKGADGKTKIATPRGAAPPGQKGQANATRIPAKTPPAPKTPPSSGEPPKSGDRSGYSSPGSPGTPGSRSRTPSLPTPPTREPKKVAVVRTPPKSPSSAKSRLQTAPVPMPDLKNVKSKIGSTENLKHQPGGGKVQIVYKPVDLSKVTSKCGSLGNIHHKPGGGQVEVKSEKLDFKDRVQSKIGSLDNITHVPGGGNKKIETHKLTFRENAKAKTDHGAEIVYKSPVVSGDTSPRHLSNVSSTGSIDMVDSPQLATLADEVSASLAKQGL
Protocol details: In vitro competition (Ki) assay versus [^3H]75, PiD brain tissue homogenate
Assay type: binding
Test settings: PiD brain tissue homogenate; radioligand [^3H]75; n = 3, mean ± SD
Consider the following molecules; for each one, report its pKi.
Numbers only, as −log10 of the molar value.

Answered examples (3):
CNc1ccc(/C=C/C=C/c2nc3ccc(OCC(O)CF)cc3s2)cn1 (stereo not shown) [Compound 3, florzolotau]; 6.91
OCC1CCN(c2ccc(-c3cc4cc(O)ccc4[nH]3)c(F)n2)CC1 [Compound 5]; 6.24
Nc1c(F)ccc2cnc(-n3ccc4ccncc43)cc12 [Compound 4, florquinitau]; 6.18

With those in mind, consider the next molecule.
Task: For Fc1cc(-c2ccc3c(n2)[nH]c2ccncc23)ccn1 [Compound 2] , write its pKi.
Result: 5.71

====

System tested: PCP
Protocol details: Eurofins panel: PCP (antagonist radioligand)
Test settings: read-out: Concurrent Ki (Specific binding), reference compound
Recorded metric: pKi
Answers are plain numbers, as −log10 of the molar value.

Task: Look up and state reported pKi for C[C@]12N[C@H](Cc3ccccc31)c1ccccc12
Result: 8.27
